Where a SMILES comes first, the peptide text is derived from it. [ ]: non-standard residue; d: D form. Phe(3-Cl) = N[C@@H](Cc1cccc(Cl)c1)C(=O)O; Phe(4-Cl) = N[C@@H](Cc1ccc(Cl)cc1)C(=O)O; Tic = O=C(O)[C@@H]1Cc2ccccc2CN1
Consider the following pIC50 values measured on ExoI (Escherichia coli, UniProt P04995).
Sequence (P04995 whole entry): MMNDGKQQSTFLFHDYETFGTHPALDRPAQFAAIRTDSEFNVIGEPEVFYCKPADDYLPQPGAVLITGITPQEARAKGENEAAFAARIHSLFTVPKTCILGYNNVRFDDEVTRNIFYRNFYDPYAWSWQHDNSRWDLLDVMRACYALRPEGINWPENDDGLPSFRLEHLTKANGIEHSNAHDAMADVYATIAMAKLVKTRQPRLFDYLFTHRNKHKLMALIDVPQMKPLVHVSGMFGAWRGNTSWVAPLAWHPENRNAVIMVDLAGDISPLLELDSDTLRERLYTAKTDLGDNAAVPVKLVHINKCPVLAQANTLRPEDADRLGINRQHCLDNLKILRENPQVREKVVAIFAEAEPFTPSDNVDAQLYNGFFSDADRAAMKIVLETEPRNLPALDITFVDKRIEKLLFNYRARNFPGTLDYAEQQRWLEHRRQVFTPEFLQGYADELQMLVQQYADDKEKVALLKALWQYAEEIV
Numbers only, as −log10 of the molar value.

Some solved cases for reference:
molecule: CC[C@H](C)[C@H](NC(=O)[C@H](CC(=O)O)NC(=O)[C@H](CC(=O)O)NC(=O)[C@H](CC(=O)O)NC(=O)[C@H](Cc1cccc(Cl)c1)NC(=O)[C@H](CC(=O)O)NC(C)=O)C(=O)N1CCC[C@H]1C(=O)N[C@@H](Cc1ccccc1)C(=O)O [3-Cl-Phe2] (Ac-D[Phe(3-Cl)]DDDIPF-OH)
readout: pIC50
numeric readout: 5.69
--
molecule: CC[C@H](C)[C@H](NC(=O)[C@H](CC(=O)O)NC(=O)[C@H](CC(=O)O)NC(=O)[C@H](CC(=O)O)NC(=O)[C@H](Cc1ccccc1)NC(=O)[C@H](CC(=O)O)NC(C)=O)C(=O)N1CCC[C@H]1C(=O)N1Cc2ccccc2C[C@H]1C(=O)O [Tic8] (Ac-DFDDDIP[Tic]-OH)
readout: pIC50
numeric readout: 4.02

// sample CC[C@H](C)[C@H](NC(=O)[C@H](CC(=O)O)NC(=O)[C@H](CC(=O)O)NC(=O)[C@H](CC(=O)O)NC(=O)[C@H](Cc1ccccc1)NC(=O)[C@H](CC(=O)O)NC(C)=O)C(=O)N1CCC[C@H]1C(=O)N[C@@H](Cc1ccc(Cl)cc1)C(=O)O [4-Cl-Phe8] (Ac-DFDDDIP[Phe(4-Cl)]-OH) , its pIC50 was 5.85

###

assayed system: RecO (Escherichia coli, UniProt P0A7H3)
Construct: His-tag (TEV site) (N, cleaved yes); made in house; host or cells: E. coli Rosetta cells
Sequence (P0A7H3 whole entry): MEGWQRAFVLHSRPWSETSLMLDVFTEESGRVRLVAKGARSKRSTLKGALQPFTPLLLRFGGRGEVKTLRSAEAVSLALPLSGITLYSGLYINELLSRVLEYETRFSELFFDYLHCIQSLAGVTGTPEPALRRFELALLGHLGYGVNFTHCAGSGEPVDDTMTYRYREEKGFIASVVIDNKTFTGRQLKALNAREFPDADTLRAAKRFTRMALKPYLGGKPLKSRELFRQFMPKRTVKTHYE
test description: biochemical
Format: binding
protocol conditions: 0.5 μM RecO, 50 nM F-wtSSB tracer, 0–500 μM unlabeled peptide, 30 min room temperature; 20 mM Tris-HCl pH 8.0, 200 mM NaCl, 10% glycerol, 0.01% Triton-X 100; 25 °C; triplicate; read-out: IC50 on RecO, competitive fluorescence anisotropy
Where no end group is shown, it is not given here.
readout: pIC50
Numbers only, as −log10 of the molar value.

Solved cases (4 shown):
substance: Ac-EFDDDIPF [Glu1]
pIC50: 5.29
//
substance: Ac-DFDNDIPF [Asn4]
pIC50: 4.80
//
substance: Ac-NFDDDIPF [Asn1]
pIC50: 4.86
//
substance: Ac-DFNDDIPF [Asn3]
pIC50: 4.85

For every listed record, write down its pIC50.
1. Ac-DFDDNIPF [Asn5]
2. Ac-DFDEDIPF [Glu4]
3. Ac-DFEDDIPF [Glu3]

1. 4.80
2. 5.25
3. 5.24

###

assayed system: RecO (Escherichia coli, UniProt P0A7H3)
Construct: His-tag (TEV site) (N, cleaved yes); made in house; host or cells: E. coli Rosetta cells
test description: biochemical
Format: binding
protocol conditions: 0.5 μM RecO, 50 nM F-wtSSB tracer, 0–500 μM unlabeled peptide, 30 min room temperature; 20 mM Tris-HCl pH 8.0, 200 mM NaCl, 10% glycerol, 0.01% Triton-X 100; 25 °C; triplicate; read-out: IC50 on RecO, competitive fluorescence anisotropy
Where a SMILES comes first, the peptide text is derived from it. [ ]: non-standard residue; d: D form. Phe(4-CF3) = N[C@@H](Cc1ccc(C(F)(F)F)cc1)C(=O)O; Phe(3-Cl) = N[C@@H](Cc1cccc(Cl)c1)C(=O)O; Tic = O=C(O)[C@@H]1Cc2ccccc2CN1; 2Thi = N[C@@H](Cc1cccs1)C(=O)O; β3hD = NC(CC(=O)O)CC(=O)O
readout: IC50 (µM)
Answers are plain numbers, in µM.

compound: CC[C@H](C)[C@H](NC(=O)[C@H](CC(=O)O)NC(=O)[C@H](CC(=O)O)NC(=O)[C@H](CC(=O)O)NC(=O)[C@H](Cc1ccccc1)NC(=O)[C@H](CC(=O)O)NC(C)=O)C(=O)N1CCC[C@H]1C(=O)N1Cc2ccccc2C[C@H]1C(=O)O [Tic8] (Ac-DFDDDIP[Tic]-OH)
numeric readout: 141
//
compound: CC[C@H](C)[C@H](NC(=O)[C@H](CC(=O)O)NC(=O)[C@H](CC(=O)O)NC(=O)[C@H](CC(=O)O)NC(=O)[C@H](Cc1cccs1)NC(=O)[C@H](CC(=O)O)NC(C)=O)C(=O)N1CCC[C@H]1C(=O)N[C@@H](Cc1ccccc1)C(=O)O [Thi2] (Ac-D[2Thi]DDDIPF-OH)
numeric readout: 5.27
//
compound: CC[C@H](C)[C@H](NC(=O)[C@H](CC(=O)O)NC(=O)C[C@H](CC(=O)O)NC(=O)[C@H](CC(=O)O)NC(=O)[C@H](Cc1ccccc1)NC(=O)[C@H](CC(=O)O)NC(C)=O)C(=O)N1CCC[C@H]1C(=O)N[C@@H](Cc1ccccc1)C(=O)O [β3-Asp4] (Ac-DFD[β3hD]DIPF-OH)
numeric readout: 19.6
//
compound: CC[C@H](C)[C@H](NC(=O)[C@H](CC(=O)O)NC(=O)[C@H](CC(=O)O)NC(=O)[C@H](CC(=O)O)NC(=O)[C@H](Cc1cccc(Cl)c1)NC(=O)[C@H](CC(=O)O)NC(C)=O)C(=O)N1CCC[C@H]1C(=O)N[C@@H](Cc1ccccc1)C(=O)O [3-Cl-Phe2] (Ac-D[Phe(3-Cl)]DDDIPF-OH)
numeric readout: 3.44

Form field IC50, entry CC[C@H](C)[C@H](NC(=O)[C@H](CC(=O)O)NC(=O)[C@H](CC(=O)O)NC(=O)[C@H](CC(=O)O)NC(=O)[C@H](Cc1ccc(C(F)(F)F)cc1)NC(=O)[C@H](CC(=O)O)NC(C)=O)C(=O)N1CCC[C@H]1C(=O)N[C@@H](Cc1ccccc1)C(=O)O [4-CF3-Phe2] (Ac-D[Phe(4-CF3)]DDDIPF-OH) : 3.27

###

assayed system: RecO (Escherichia coli, UniProt P0A7H3)
Construct: His-tag (TEV site) (N, cleaved yes); made in house; host or cells: E. coli Rosetta cells
test description: biochemical
Assay type: binding
protocol conditions: 0.5 μM RecO, 50 nM F-wtSSB tracer, 0–500 μM unlabeled peptide, 30 min room temperature; 20 mM Tris-HCl pH 8.0, 200 mM NaCl, 10% glycerol, 0.01% Triton-X 100; 25 °C; triplicate; read-out: IC50 on RecO, competitive fluorescence anisotropy
Where a SMILES comes first, the peptide text is derived from it. [ ]: non-standard residue; d: D form. Phe(4-Cl) = N[C@@H](Cc1ccc(Cl)cc1)C(=O)O; NMeF = CN[C@@H](Cc1ccccc1)C(=O)O; β3hI = CC[C@H](C)[C@H](N)CC(=O)O; NMeD = CN[C@@H](CC(=O)O)C(=O)O; Tle = CC(C)(C)[C@H](N)C(=O)O
I'd appreciate it if you could supply IC50 values for the items below.
Give bare numbers, in µM.

Below are worked cases with known answers.
molecule: CC(=O)N[C@@H](CC(=O)O)C(=O)N[C@@H](Cc1ccccc1)C(=O)N[C@@H](CC(=O)O)C(=O)N[C@@H](CC(=O)O)C(=O)N[C@@H](CC(=O)O)C(=O)N[C@H](C(=O)N1CCC[C@H]1C(=O)N[C@@H](Cc1ccccc1)C(=O)O)C(C)(C)C [tBuGly6] (Ac-DFDDD[Tle]PF-OH)
assayed system: RecO (Escherichia coli, UniProt P0A7H3)
readout: IC50
unit text: µM
numeric readout: 10.4
//
molecule: CC[C@H](C)[C@@H](CC(=O)N1CCC[C@H]1C(=O)N[C@@H](Cc1ccccc1)C(=O)O)NC(=O)[C@H](CC(=O)O)NC(=O)[C@H](CC(=O)O)NC(=O)[C@H](CC(=O)O)NC(=O)[C@H](Cc1ccccc1)NC(=O)[C@H](CC(=O)O)NC(C)=O [β3-Ile6] (Ac-DFDDD[β3hI]PF-OH)
assayed system: RecO (Escherichia coli, UniProt P0A7H3)
readout: IC50
unit text: µM
numeric readout: 19.2
//
molecule: CC[C@H](C)[C@H](NC(=O)[C@H](CC(=O)O)NC(=O)[C@H](CC(=O)O)NC(=O)[C@H](CC(=O)O)NC(=O)[C@H](Cc1ccc(Cl)cc1)NC(=O)[C@H](CC(=O)O)NC(C)=O)C(=O)N1CCC[C@H]1C(=O)N[C@@H](Cc1ccccc1)C(=O)O [4-Cl-Phe2] (Ac-D[Phe(4-Cl)]DDDIPF-OH)
assayed system: RecO (Escherichia coli, UniProt P0A7H3)
readout: IC50
unit text: µM
numeric readout: 2.38
//
molecule: CC[C@H](C)[C@H](NC(=O)[C@H](CC(=O)O)NC(=O)[C@H](CC(=O)O)NC(=O)[C@H](CC(=O)O)NC(=O)[C@H](Cc1ccccc1)NC(=O)[C@@H](CC(=O)O)NC(C)=O)C(=O)N1CCC[C@H]1C(=O)N[C@@H](Cc1ccccc1)C(=O)O [D-Asp1] (Ac-[dD]FDDDIPF-OH)
assayed system: RecO (Escherichia coli, UniProt P0A7H3)
readout: IC50
unit text: µM
numeric readout: 6.56

For every item in the list below, what is its measured IC50?
1. CC[C@H](C)[C@H](NC(=O)[C@H](CC(=O)O)NC(=O)[C@H](CC(=O)O)N(C)C(=O)[C@H](CC(=O)O)NC(=O)[C@H](Cc1ccccc1)NC(=O)[C@H](CC(=O)O)NC(C)=O)C(=O)N1CCC[C@H]1C(=O)N[C@@H](Cc1ccccc1)C(=O)O [NM-Asp4] (Ac-DFD[NMeD]DIPF-OH)
2. CC[C@H](C)[C@H](NC(=O)[C@H](CC(=O)O)NC(=O)[C@H](CC(=O)O)NC(=O)[C@H](CC(=O)O)NC(=O)[C@H](Cc1ccccc1)NC(=O)[C@H](CC(=O)O)NC(C)=O)C(=O)N1CCC[C@@H]1C(=O)N[C@@H](Cc1ccccc1)C(=O)O [D-Pro7] (Ac-DFDDDI[dP]F-OH)
3. CC[C@H](C)[C@H](NC(=O)[C@H](CC(=O)O)NC(=O)[C@H](CC(=O)O)NC(=O)[C@H](CC(=O)O)NC(=O)[C@H](Cc1ccccc1)N(C)C(=O)[C@H](CC(=O)O)NC(C)=O)C(=O)N1CCC[C@H]1C(=O)N[C@@H](Cc1ccccc1)C(=O)O [NM-Phe2] (Ac-D[NMeF]DDDIPF-OH)

1. 3.85
2. 11.6
3. 3.33

Values from paper PMC10143822
